Measured values drawn from the RNAGym collection of RNA variant scans (doi:10.1002/anie.201605470) for this set.

B1: Osa-1-4 twister ribozyme (parent)
chain: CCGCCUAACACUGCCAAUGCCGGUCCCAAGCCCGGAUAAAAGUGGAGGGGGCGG

variants of: B1; assay: self-cleavage, relative activity (ratio to wild type); higher = more cleavage; co-transcriptional
Recorded self-cleavage by entry
Answer field: number only, no words.

ALTERATION	self-cleavage
A38U G47C	0.08
C14G G50A	0.13
A29C U43G	0.05
C21A C33G	0.03
A41C C15A	0.27
A29G A40C	0.04
A16U U18C	0.87
A38C C9G	0.83

So for A38C C14G , the logged self-cleavage turned out to be 0.08

So for A10G G47U , the logged self-cleavage turned out to be 0.12

So for G30C U18A , the logged self-cleavage turned out to be 0.05

So for A16C G48U , the logged self-cleavage turned out to be 0.06

So for C27G G51A , the logged self-cleavage turned out to be 0.05

So for A16C C31U , the logged self-cleavage turned out to be 0.55

So for A40G G53C , the logged self-cleavage turned out to be 0.08

So for A10G A29C , the logged self-cleavage turned out to be 0.05
